Listed next: entries and their corresponding pIC50.
measuredOn: DA D2 receptors (Rattus norvegicus, UniProt P61169)
Construct: DA D2 receptors in rat striatal membranes; from tissue; host or cells: rat striatal membranes
Sequence (P61169 whole entry): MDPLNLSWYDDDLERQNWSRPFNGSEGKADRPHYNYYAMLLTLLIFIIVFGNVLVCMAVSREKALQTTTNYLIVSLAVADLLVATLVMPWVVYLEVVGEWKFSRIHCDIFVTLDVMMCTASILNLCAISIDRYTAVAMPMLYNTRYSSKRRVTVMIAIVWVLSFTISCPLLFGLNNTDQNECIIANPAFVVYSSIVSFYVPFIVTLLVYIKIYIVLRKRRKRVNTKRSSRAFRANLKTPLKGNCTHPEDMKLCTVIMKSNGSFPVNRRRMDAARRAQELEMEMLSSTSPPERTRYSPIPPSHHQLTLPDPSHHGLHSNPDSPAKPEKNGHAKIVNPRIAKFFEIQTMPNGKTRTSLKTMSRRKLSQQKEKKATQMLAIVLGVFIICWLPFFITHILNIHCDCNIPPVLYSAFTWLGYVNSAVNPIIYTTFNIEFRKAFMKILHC
assayText: Inhibition of 3H-spiperone binding to DA D2 receptors in rat striatal membranes
testConditions: rat striatal membranes, 3H-spiperone; read-out: Receptor Binding; IC50, D2 3H-Spi
In plain terms, pIC50 is the concentration in mol/L turned into minus its base-10 logarithm.

CC(C)C1CN([C@@H]2C[C@@H](c3ccc(F)cc3)c3ccc(Cl)cc32)CCN1 (relative stereo) [Compound 20]
6.89

Req: Return reported pIC50; argument: CC1(C)CN([C@@H]2C[C@@H](c3ccc(F)cc3)c3ccc(Cl)cc32)CCN1CCO (racemic)
Resp: 8.52

Req: Which value of pIC50 has been reported for CN1CCN([C@@H]2C[C@@H](c3ccc(F)cc3)c3ccc(C(F)(F)F)cc32)CC1(C)C (racemic) in the records?
Resp: 8.24

Req: Data request, read-out pIC50, for CC(C)N1CCN([C@@H]2C[C@@H](c3ccc(F)cc3)c3ccc(Cl)cc32)CC12CCCC2 (racemic)
Resp: 8.06

Req: Reported pIC50 for Cc1ccc2c(c1)[C@H](N1CCNC(C)(C)C1)C[C@H]2c1ccc(F)cc1 (racemic) : what is it?
Resp: 8.25

Req: So what does the record say about pIC50 for Fc1ccc([C@@H]2C[C@@H](N3CCNC4(CCCCC4)C3)c3cc(Cl)ccc32)cc1 (racemic) ?
Resp: 7.12

Req: pIC50 for CC1(C)CN([C@@H]2C[C@@H](c3ccc(F)cc3)c3ccc(Cl)cc32)CCN1CCCO (racemic) ?
Resp: 8.01

Values compiled from patent US5807855A.
